# Tested on: U-2932
# Method Description: growth inhibition by drug alone (1 - RLU/untreated control) (fraction); higher = stronger inhibition
# Test Settings: 10 nM; time (day): 4; 177Lu-lilotomab satetraxetan 0 ug/ml
Cut-off 0.05 on growth inhibition by drug alone, inclusive. At or above means fulfilled; below means not fulfilled.

Known results for molecules:
> print(dat)
                                   molecule    label.class
1  Fc1cc(-c2cccc3ncc(-c4cnn(C5CCNCC5)c4)nc23)cc(F)c1CN1CCOCC1      fulfilled
2  C[C@]1(O)C[C@@H](c2nc(-c3ccc4ccc(-c5ccccc5)nc4c3)c3c(N)nccn32)C1  not fulfilled

### Prompt hey, is growth inhibition by drug alone for this one >= 0.05? CC1(CN2CCC(n3c(=O)[nH]c4ccccc43)CC2)OCc2ccccc2-n2cccc21 (stereo not given)
### Response not fulfilled

### Prompt Please check the record Nc1cc(C(F)(F)F)c(-c2cc(N3CCOCC3)nc(N3CCOCC3)n2)cn1 and state if its growth inhibition by drug alone is at or above 0.05.
### Response not fulfilled

### Prompt Determine whether this molecule has growth inhibition by drug alone no lower than 0.05: CNCc1ccc(-c2[nH]c3cc(F)cc4c3c2CCNC4=O)cc1
### Response fulfilled

* * *

# System: RIVA
# Method Description: growth inhibition by drug alone (1 - RLU/untreated control) (fraction); higher = stronger inhibition
# Test Settings: 10 nM; time (day): 5; 177Lu-lilotomab satetraxetan 0 ug/ml
Measured Quantity: growth inhibition by drug alone
Answer as a number with no unit attached.

Example entries begin here.
Molecule	growth inhibition by drug alone
COc1cc2ncnc(Nc3ccc(F)c(Cl)c3)c2cc1OCCCN1CCOCC1 [Gefitinib (Iressa)]	-0.168
CN(c1ncccc1CNc1nc(Nc2ccc3c(c2)CC(=O)N3)ncc1C(F)(F)F)S(C)(=O)=O	-0.0513
C[C@]1(O)C[C@@H](c2nc(-c3ccc4ccc(-c5ccccc5)nc4c3)c3c(N)nccn32)C1 [Linsitinib (OSI-906)]	-0.261

### Prompt Record CS(=O)(=O)CCNCc1ccc(-c2ccc3ncnc(Nc4ccc(OCc5cccc(F)c5)c(Cl)c4)c3c2)o1 [Lapatinib Ditosylate (Tykerb)] : what is its growth inhibition by drug alone with RIVA?
### Response -0.0719

### Prompt Provide value of growth inhibition by drug alone for this record tested with RIVA: Nc1ncn([C@H]2C[C@H](O)[C@@H](CO)O2)c(=O)n1 [Decitabine]
### Response -0.0488

### Prompt RIVA / growth inhibition by drug alone / CN1C(=O)C(Cc2c[nH]c3ccccc23)NC1=S (stereo unspecified) [Necrostatin-1] : value?
### Response -0.218

### Prompt Provide the documented growth inhibition by drug alone with RIVA as the system for NC(=O)c1ccc2nc(-c3ccc(Oc4ccc(Cl)cc4)cc3)[nH]c2c1
### Response -0.0793

### Prompt Hello, I am looking for reported growth inhibition by drug alone with RIVA for C#CCN(C)CC1=Cc2ccccc2Oc2ccccc21 . Could you help?
### Response -0.0438

### Prompt Given the entry CC[C@]1(O)C[C@@H]2CN(CCc3c([nH]c4ccccc34)[C@@](C(=O)OC)(c3cc4c(cc3OC)N(C)[C@H]3[C@@](O)(C(=O)OC)[C@H](OC(C)=O)[C@]5(CC)C=CCN6CC[C@]43[C@@H]65)C2)C1 [Vinblastine] , what growth inhibition by drug alone was observed with RIVA?
### Response 0.0372

### Prompt Identify the measured growth inhibition by drug alone of O=C1CN2Cc3c(ccc(Cl)c3Cl)N=C2N1 [Anagrelide] for RIVA.
### Response -0.0392

* * *

# Test system: U-2932
# Method Description: growth inhibition by drug plus 177Lu-lilotomab satetraxetan (1 - RLU/untreated control) (fraction); higher = stronger inhibition
# Test Settings: 10 nM; time (day): 5; 177Lu-lilotomab satetraxetan 1 ug/ml
Structures can show the parent of a compound that is named as a salt.
# growth inhibition by drug plus 177Lu-lilotomab satetraxetan >= 0.1 gives 1 (yes), anything below gives 0 (no)

Previously resolved entries follow.
Molecule	Label Class
Cn1cc(-c2ccc3nnc(Sc4ccc5ncccc5c4)n3n2)cn1	1 (yes)
Cc1[nH]c2ccccc2c1CCNCc1ccc(/C=C/C(=O)NO)cc1	1 (yes)
COc1ccc(-c2ccc3c(N4CCOC[C@@H]4C)nc(N4CCOC[C@@H]4C)nc3n2)cc1CO	1 (yes)
COc1ncc(-c2ccc3nccc(-c4ccnnc4)c3c2)cc1NS(=O)(=O)c1ccc(F)cc1F	1 (yes)
CN1CCN(c2nc(C3=C(c4c[nH]c5ccccc45)C(=O)NC3=O)c3ccccc3n2)CC1	1 (yes)
CC1(COc2ccc3c(c2)ncn3-c2ccc3cccc(N4CCC(N)CC4)c3n2)COC1	1 (yes)
COC(=O)C1=C(C)NC(C)=C(C(=O)OCCCN2CCC(c3ccccc3)(c3ccccc3)CC2)[C@H]1c1cccc([N+](=O)[O-])c1 [S-(+)-Niguldipine hydrochloride]	0 (no)
O=C(Nc1ncc([N+](=O)[O-])s1)c1ccc([N+](=O)[O-])c(Cl)c1	1 (yes)
COc1cc2nccc(Oc3ccc(NC(=O)C4(C(=O)Nc5ccc(F)cc5)CC4)cc3)c2cc1OC [XL-184 free base (Cabozantinib)]	1 (yes)
C=CC[C@@H]1/C=C(\C)C[C@H](C)C[C@H](OC)[C@H]2O[C@@](O)(C(=O)C(=O)N3CCCC[C@H]3C(=O)O[C@H](/C(C)=C/[C@@H]3CC[C@@H](O)[C@H](OC)C3)[C@H](C)[C@@H](O)CC1=O)[C@H](C)C[C@@H]2OC	1 (yes)

### Prompt Quick check, growth inhibition by drug plus 177Lu-lilotomab satetraxetan >= 0.1? CC(C)C[C@@H](C(=O)N[C@H](C(=O)OC1CCCC1)c1ccccc1)[C@H](O)C(=O)NO
### Response 1 (yes)

### Prompt Dear colleague, could you confirm whether Cc1ccc(C(=O)Nc2ccc(CN3CCN(C)CC3)c(C(F)(F)F)c2)cc1C#Cc1cnc2cccnn12 has growth inhibition by drug plus 177Lu-lilotomab satetraxetan at or above 0.1?
### Response 0 (no)

### Prompt Is the recorded value of growth inhibition by drug plus 177Lu-lilotomab satetraxetan equal to or greater than 0.1 for this molecule? Cc1ccc(-c2cc(C(F)(F)F)nn2-c2ccc(S(N)(=O)=O)cc2)cc1
### Response 0 (no)

### Prompt Quick check, growth inhibition by drug plus 177Lu-lilotomab satetraxetan >= 0.1? Cc1nc(-c2ccc(OCC(C)C)c(C#N)c2)sc1C(=O)O
### Response 0 (no)

* * *

# Test system: U-2932
# Method Description: growth inhibition by drug plus 177Lu-lilotomab satetraxetan (1 - RLU/untreated control) (fraction); higher = stronger inhibition
# Test Settings: 10 nM; time (day): 4; 177Lu-lilotomab satetraxetan 1 ug/ml
Counter-ions that a name gives are not always drawn.
Property: growth inhibition by drug plus 177Lu-lilotomab satetraxetan; scope: individual compounds
No unit in the answer, please; the number alone is enough.

Recorded results for 10 compounds are shown here.
Compound	Number
Cc1ccc(S(=O)(=O)C=CC#N)cc1	0.0303
CC(=O)[C@]1(O)Cc2c(O)c3c(c(O)c2[C@@H](O[C@H]2C[C@H](N)[C@H](O)[C@H](C)O2)C1)C(=O)c1ccccc1C3=O [Idarubicin HCl]	0.712
O=C(O)CC[C@H]1CC[C@@](c2cc(F)ccc2F)(S(=O)(=O)c2ccc(Cl)cc2)CC1	0.0724
COc1cccc2c1C(=O)c1c(O)c3c(c(O)c1C2=O)C[C@@](O)(C(=O)CO)C[C@@H]3O[C@H]1C[C@H](N)[C@@H](O)[C@H](C)O1 [Epirubicin Hydrochloride]	0.323
Oc1nc(-c2ccc(C(F)(F)F)cc2)nc2c1CSCC2	0.0339
C[C@]12CC[C@@H]3c4ccc(O)cc4C[C@@H](CCCCCCCCC[S+]([O-])CCCC(F)(F)C(F)(F)F)[C@H]3[C@@H]1CC[C@@H]2O (stereo not given in full)	0.0303
C=CC(=O)Nc1cccc(Oc2nc(Nc3ccc(N4CCN(C)CC4)cc3OC)ncc2Cl)c1	-0.073
N#CC[C@H](C1CCCC1)n1cc(-c2ncnc3[nH]ccc23)cn1	0.0333
COc1cccc2c1C(=O)c1c(O)c3c(c(O)c1C2=O)C[C@@](O)(C(C)=O)C[C@@H]3O[C@H]1C[C@H](N)[C@H](O)[C@H](C)O1 [Daunorubicin HCl (Daunomycin HCl)]	0.265
COC(=O)C1=C(C)NC(C)=C(C(=O)OCCCN2CCC(c3ccccc3)(c3ccccc3)CC2)[C@H]1c1cccc([N+](=O)[O-])c1 [S-(+)-Niguldipine hydrochloride]	0.0306

### Prompt Need growth inhibition by drug plus 177Lu-lilotomab satetraxetan, item CS(=O)(=O)N1CCN(Cc2cc3nc(-c4cccc5[nH]ncc45)nc(N4CCOCC4)c3s2)CC1
### Response -0.0112

### Prompt Please give the measured growth inhibition by drug plus 177Lu-lilotomab satetraxetan for this compound: Cc1[nH]c2ccccc2c1CCNCc1ccc(/C=C/C(=O)NO)cc1 [Panobinostat]
### Response 0.524

### Prompt What does the record list as growth inhibition by drug plus 177Lu-lilotomab satetraxetan for O=C(O[C@@H]1Cc2c(O)cc(O)cc2O[C@@H]1c1cc(O)c(O)c(O)c1)c1cc(O)c(O)c(O)c1 [(-)-Epigallocatechin gallate] ?
### Response 0.00037

### Prompt Item CCc1ccc(CCOc2ccc(CC3SC(=O)NC3=O)cc2)nc1 (stereo not given) [Pioglitazone (Actos)] has what recorded growth inhibition by drug plus 177Lu-lilotomab satetraxetan?
### Response -0.0372

### Prompt Data request, read-out growth inhibition by drug plus 177Lu-lilotomab satetraxetan, for Cc1ccc([N+](=O)[O-])cc1S(=O)(=O)N(C)/N=C/c1cnc2ccc(Br)cn12
### Response 0.371

Every entry's value here was drawn from the supplement of paper PMC6897291.
